Tested on: 628569-122-R-J1-PDC complex spheroid viability
Test: Anticancer human tumor 628569-122-R-J1-PDC patient-derived head and neck squamous carcinoma cell line growth inhibition [CLK]
Conditions: second compound 0.0316 µM; first compound 10 µM; hits give low values
Description: A high-throughput screen of multi-cell type tumor spheroids was designed to identify active combinations of […] and targeted small molecules. Complex spheroids include a stromal component modeled by human endothelial cells (HUVEC) and fibroblasts modeled by human mesenchymal stem cells (MSCs). […] Compounds. […] If the clinical Cmax for an agent had not been determined, the highest concentration tested was 10 microM. […]
Assign viability, T/C to each entry below.
One number for each entry, in %.

[
  {
    "COMPOUND": "COc1cccc2c1C(=O)c1c(O)c3c(c(O)c1C2=O)CC(O)(C(=O)CO)CC3OC1CC(N)C(O)C(C)O1 (configuration not stated) + CN1CCN(c2cc(C(=O)Nc3cc4cc(-c5cnn(C)c5)ccc4cn3)ccn2)CC1",
    "UNIT_OF_MEASUREMENT": "%",
    "viability, T/C": 6.19
  }
]

Hi! Can you tell me viability, T/C for each of these compounds?
1. Nc1ccn(C2OC(CO)C(O)C2(F)F)c(=O)n1 (configuration not stated) + CN1CCN(c2cc(C(=O)Nc3cc4cc(-c5cnn(C)c5)ccc4cn3)ccn2)CC1
2. C#Cc1c(F)ccc2cc(O)cc(-c3ncc4c(N5CC6CCC(C5)N6)nc(OCC56CCCN5CC(F)C6)nc4c3F)c12 (configuration not stated) + CN1CCN(c2cc(C(=O)Nc3cc4cc(-c5cnn(C)c5)ccc4cn3)ccn2)CC1

62.9
96

* * *

Assign viability, T/C to each entry below.
system: 628569-122-R-J1-PDC complex spheroid viability; assay: Anticancer human tumor 628569-122-R-J1-PDC cell line growth inhibition [CLK]; conditions: second compound 0.316 µM; first compound 1 µM; hits give low values;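 further: spheroids exposed to agents for seven days before readout; 100% = DMSO vehicle control viability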
Numbers only, in %.

# example entries with known answers
[
  {
    "COMPOUND": "COC1C=CCC(C)C(C)S(=O)(=O)NC(=O)c2ccc3c(c2)N(CC2CCC21)CC1(CCCc2cc(Cl)ccc21)CO3 (centres undefined) + CN1CCN(c2cc(C(=O)Nc3cc4cc(-c5cnn(C)c5)ccc4cn3)ccn2)CC1",
    "TARGET_OF_ASSAY": "628569-122-R-J1-PDC complex spheroid viability",
    "viability, T/C / %": 20.7
  },
  {
    "COMPOUND": "C=C(F)C(=O)N1CCN(c2nc(OCC3CCCN3C)nc3c2CCN(c2cccc4cccc(Cl)c24)C3)CC1CC#N (centres undefined) + CN1CCN(c2cc(C(=O)Nc3cc4cc(-c5cnn(C)c5)ccc4cn3)ccn2)CC1",
    "TARGET_OF_ASSAY": "628569-122-R-J1-PDC complex spheroid viability",
    "viability, T/C / %": 32.2
  },
  {
    "COMPOUND": "O=c1[nH]cc(F)c(=O)[nH]1 + CNC(=O)c1ccc(Nc2nc(OC3CCCC3)c3c(-c4ccc5nc(C)oc5c4)c[nH]c3n2)c(OC)c1",
    "TARGET_OF_ASSAY": "628569-122-R-J1-PDC complex spheroid viability",
    "viability, T/C / %": 54
  },
  {
    "COMPOUND": "CC(=O)O[C@H]1C(=O)[C@@]2(C)[C@H]([C@H](OC(=O)c3ccccc3)[C@]3(O)C[C@H](OC(=O)[C@H](O)[C@@H](NC(=O)c4ccccc4)c4ccccc4)C(C)=C1C3(C)C)[C@]1(OC(C)=O)CO[C@@H]1C[C@@H]2O + CNC(=O)c1ccc(Nc2nc(OC3CCCC3)c3c(-c4ccc5nc(C)oc5c4)c[nH]c3n2)c(OC)c1",
    "TARGET_OF_ASSAY": "628569-122-R-J1-PDC complex spheroid viability",
    "viability, T/C / %": 63.9
  },
  {
    "COMPOUND": "O=C(c1cc(Cc2n[nH]c(=O)c3ccccc23)ccc1F)N1CCN(C(=O)C2CC2)CC1 + CNC(=O)c1ccc(Nc2nc(OC3CCCC3)c3c(-c4ccc5nc(C)oc5c4)c[nH]c3n2)c(OC)c1",
    "TARGET_OF_ASSAY": "628569-122-R-J1-PDC complex spheroid viability",
    "viability, T/C / %": 51.9
  },
  {
    "COMPOUND": "CC1(C)CCC(CN2CCN(c3ccc(C(=O)NS(=O)(=O)c4ccc(NCC5CCOCC5)c([N+](=O)[O-])c4)c(Oc4cnc5[nH]ccc5c4)c3)CC2)=C(c2ccc(Cl)cc2)C1 + CNC(=O)c1ccc(Nc2nc(OC3CCCC3)c3c(-c4ccc5nc(C)oc5c4)c[nH]c3n2)c(OC)c1",
    "TARGET_OF_ASSAY": "628569-122-R-J1-PDC complex spheroid viability",
    "viability, T/C / %": 57.9
  },
  {
    "COMPOUND": "C=C(F)C(=O)N1CCN(c2nc(OCC3CCCN3C)nc3c2CCN(c2cccc4cccc(Cl)c24)C3)CC1CC#N (centres undefined) + CNC(=O)c1ccc(Nc2nc(OC3CCCC3)c3c(-c4ccc5nc(C)oc5c4)c[nH]c3n2)c(OC)c1",
    "TARGET_OF_ASSAY": "628569-122-R-J1-PDC complex spheroid viability",
    "viability, T/C / %": 56.3
  },
  {
    "COMPOUND": "COC1C=CCC(C)C(C)S(=O)(=O)NC(=O)c2ccc3c(c2)N(CC2CCC21)CC1(CCCc2cc(Cl)ccc21)CO3 (centres undefined) + CNC(=O)c1ccc(Nc2nc(OC3CCCC3)c3c(-c4ccc5nc(C)oc5c4)c[nH]c3n2)c(OC)c1",
    "TARGET_OF_ASSAY": "628569-122-R-J1-PDC complex spheroid viability",
    "viability, T/C / %": 33.1
  }
]

// moving on: another record for viability, T/C
Entry COc1ccc([C@@H](O)c2cc(-c3ncnc4cc(N5CCOCC5)ccc34)c(F)cc2Cl)nn1 + CNC(=O)c1ccc(Nc2nc(OC3CCCC3)c3c(-c4ccc5nc(C)oc5c4)c[nH]c3n2)c(OC)c1 : reported viability, T/C = ?
39
